- Read-out: DNA damage-inducible transcript 3 (DDIT3), DDIT3 (gene 1649)
- assay.details: LTEA_HepaRG_DDIT3: Life Technologies and Expression Analysis (LTEA) Assay for DNA damage-inducible transcript 3 (DDIT3) using HepaRG (AID 2283488)
- condition.parameters: mRNA level, 48 h; actives raise or lower the signal
The source made the active and inactive calls. How the source made its calls: active means hit-call score of the fitted dose curve at least 0.9, where 1 is the maximum; inactive means score below 0.9.
Outcomes: active, inactive

| compound | discrete.label |
| --- | --- |
| CCOC1Oc2ccc(OS(C)(=O)=O)cc2C1(C)C (stereo not given) | active |
| CCOCN(C(=O)CCl)c1c(C)cccc1CC | inactive |
| CCCN(CCC)c1c([N+](=O)[O-])cc(C(F)(F)F)cc1[N+](=O)[O-] | inactive |
| O=C1c2ccccc2C(=O)N1SC(Cl)(Cl)Cl | inactive |
| COP(=O)(OC)OC=C(Cl)Cl | inactive |
| CNC(=O)Oc1cccc(N=CN(C)C)c1 | inactive |
| O=[N+]([O-])c1c(Cl)c(Cl)c(Cl)c(Cl)c1Cl | inactive |
| CNC(=O)CSP(=S)(OC)OC | inactive |
| CC[C@H](C)[C@H]1O[C@]2(C=C[C@@H]1C)C[C@@H]1C[C@@H](C/C=C(\C)[C@@H](O[C@H]3C[C@H](OC)[C@@H](O[C@H]4C[C@H](OC)[C@@H](O)[C@H](C)O4)[C@H](C)O3)[C@@H](C)/C=C/C=C3\CO[C@@H]4[C@H](O)C(C)=C[C@@H](C(=O)O1)[C@]34O)O2 (tested in a mixture with another compound) | active |
| OCCOc1ccccc1 | inactive |

====

- Read-out: xenobiotic metabolism (CYP1A1), CYP1A1 (gene 1543)
- assay.details: CLD_CYP1A1_6hr: CellzDirect (CLD) Gene Expression Assay for xenobiotic metabolism (CYP1A1) at 6 hours (AID 2283661)
Results filed as inconclusive are left out. Calls of active or inactive are those of the source. The calls were made as follows: active = hit-call score of the fitted dose curve at least 0.9, where 1 is the maximum; inconclusive = response in the unintended direction; inactive = score below 0.9.
Outcome codes: yes (1) (active), no (0) (inactive)

| molecule | discrete.label |
| --- | --- |
| CCCN(CCC)c1c([N+](=O)[O-])cc(C(F)(F)F)cc1[N+](=O)[O-] | yes (1) |
| CCN(CC)C(=O)SCc1ccc(Cl)cc1 | no (0) |
| O=[N+]([O-])/N=C1\NCCN1Cc1ccc(Cl)nc1 | no (0) |
| CNC(=O)/C=C(\C)OP(=O)(OC)OC | no (0) |
| O=C(NC(=O)c1c(F)cccc1F)Nc1ccc(OC(F)(F)C(F)OC(F)(F)F)c(Cl)c1 (configuration not stated) | no (0) |
| COC(=O)c1ccccc1CS(=O)(=O)NC(=O)Nc1nc(OC)cc(OC)n1 | yes (1) |
| CCC(C)Nc1c([N+](=O)[O-])cc(C(C)(C)C)cc1[N+](=O)[O-] (configuration not stated) | yes (1) |
| ClC1C(Cl)C(Cl)C(Cl)C(Cl)C1Cl (configuration not stated) | no (0) |
| Oc1cc(Cl)ccc1Oc1ccc(Cl)cc1Cl | no (0) |
| CNC(=O)CSP(=S)(OC)OC | yes (1) |
| Oc1ccc(Cl)cc1Cc1ccccc1 | no (0) |
| O=C(O)CCCOc1ccc(Cl)cc1Cl | no (0) |

====

- Read-out: Alkaline Phosphatase, Placental (ALPP) gene, ALPP (gene 250)
- assay.details: LTEA_HepaRG_ALPP: Life Technologies and Expression Analysis (LTEA) Assay for Alkaline Phosphatase, Placental (ALPP) gene using HepaRG (AID 2283468)
- condition.parameters: mRNA level, 48 h; actives raise or lower the signal
Active and inactive are the calls of the source. The calls were made as follows: active = hit-call score of the fitted dose curve at least 0.9, where 1 is the maximum; inactive = score below 0.9.
Classes used: 1 = active, -1 = inactive

| molecule | discrete.label |
| --- | --- |
| CCC(C)Nc1c([N+](=O)[O-])cc(C(C)(C)C)cc1[N+](=O)[O-] (stereo unspecified) | -1 |
| CCOCN(C(=O)CCl)c1c(C)cccc1CC | -1 |
| CC(C)N(C(=O)COc1nnc(C(F)(F)F)s1)c1ccc(F)cc1 | -1 |
| CNC(=O)/C=C(\C)OP(=O)(OC)OC | -1 |
| COP(=S)(OC)Oc1ccc(SC)c(C)c1 | -1 |
| CNC(=O)Oc1cccc(N=CN(C)C)c1 | -1 |
| C#CCN1C(=O)COc2cc(F)c(N3C(=O)C4=C(CCCC4)C3=O)cc21 | -1 |
| O=S1OCC2C(CO1)C1(Cl)C(Cl)=C(Cl)C2(Cl)C1(Cl)Cl (stereo unspecified) | -1 |
| Oc1ccc(Cl)cc1Cc1ccccc1 | -1 |
| O=[N+]([O-])c1c(Cl)c(Cl)c(Cl)c(Cl)c1Cl | -1 |
| COP(=O)(OC)OC=C(Cl)Cl | -1 |
| Oc1cc(Cl)ccc1Oc1ccc(Cl)cc1Cl | -1 |
| CCCN(CCC)c1c([N+](=O)[O-])cc(C(F)(F)F)cc1[N+](=O)[O-] | -1 |
| C[C@H]1[C@H](c2ccc(Cl)cc2)SC(=O)N1C(=O)NC1CCCCC1 | 1 |
| CC[C@H](C)[C@H]1O[C@]2(C=C[C@@H]1C)C[C@@H]1C[C@@H](C/C=C(\C)[C@@H](O[C@H]3C[C@H](OC)[C@@H](O[C@H]4C[C@H](OC)[C@@H](O)[C@H](C)O4)[C@H](C)O3)[C@@H](C)/C=C/C=C3\CO[C@@H]4[C@H](O)C(C)=C[C@@H](C(=O)O1)[C@]34O)O2 (tested in a mixture with another compound) | 1 |
| O=C(O)CCCOc1ccc(Cl)cc1Cl | -1 |
| CCC(C)(C)C(=O)OC1=C(c2ccc(Cl)cc2Cl)C(=O)OC12CCCCC2 | -1 |
| CCC(C)(NC(=O)c1cc(Cl)c(C)c(Cl)c1)C(=O)CCl (stereo unspecified) | -1 |
| OCCOc1ccccc1 | -1 |
| O=C(O)COc1ccc(Cl)cc1Cl | -1 |
| ClC1C(Cl)C(Cl)C(Cl)C(Cl)C1Cl (stereo unspecified) | -1 |
| COP(=S)(OC)Oc1ccc([N+](=O)[O-])cc1 | -1 |
| CC(C)(C)C(O)/C(=C\c1ccc(Cl)cc1Cl)n1cncn1 (stereo unspecified) | 1 |
| CNC(=O)CSP(=S)(OC)OC | -1 |
| O=C(NC(=O)c1c(F)cccc1F)Nc1ccc(OC(F)(F)C(F)OC(F)(F)F)c(Cl)c1 (stereo unspecified) | -1 |
| CC1(C)C(C=C(Cl)Cl)C1C(=O)OC(C#N)c1ccc(F)c(Oc2ccccc2)c1 (stereo unspecified) | -1 |
